Assay: Toxicity liver stage against HepG2, at 10uM
Assay type: cell-based
Set-up: test concentration 10 uM, cell line HepG2-A16-CD81EGFP
Details: human, HepG2-A16-CD81EGFP cells; read-out: INHIBITION
measured-quantity: cytotoxicity at 10 µM (%)
Write it as a number; the unit % goes unstated.

Kindly note the recorded cytotoxicity at 10 µM for CN(C)CCN1C(=O)C[C@@H]2[C@@H]1CCN2S(=O)(=O)c1ccccc1 , which is -7.52

Kindly note the recorded cytotoxicity at 10 µM for CC(C)c1nn(C)c(N(C)C)c1CNCc1ccccc1CO , which is -9.89

Kindly note the recorded cytotoxicity at 10 µM for Cc1ccc(-c2cn[nH]c2C2CCCN(c3ncccn3)C2)cc1 (configuration not stated) , which is 87.3

Kindly note the recorded cytotoxicity at 10 µM for CN(Cc1n[nH]c2c1CCC2)C(=O)CCc1cc2n(n1)CCNC2 , which is -10.5

Kindly note the recorded cytotoxicity at 10 µM for CN(C)c1cccc(CNCc2ccc(N3CCOCC3)cc2)c1 , which is 11.3

Kindly note the recorded cytotoxicity at 10 µM for COC(=O)c1cnc(/C=C/c2ccc(C(=O)O)cc2)s1 , which is 2.56

Kindly note the recorded cytotoxicity at 10 µM for O=C(CCn1ccnc1)N1C[C@@H](O)[C@H](Oc2cccc(F)c2)C1 , which is -21.6

Kindly note the recorded cytotoxicity at 10 µM for NC(=O)N1CCCC(C(=O)NCc2noc(Cc3ccccc3)n2)C1 (configuration not stated) , which is 2.4

Kindly note the recorded cytotoxicity at 10 µM for CN(CCS(C)(=O)=O)C1CCCN(Cc2noc(C3CC3)n2)C1 (configuration not stated) , which is 14.6

Kindly note the recorded cytotoxicity at 10 µM for Cn1c(Cn2cccn2)nnc1C1CCN(Cc2ccccc2Cl)CC1 , which is -0.4

Kindly note the recorded cytotoxicity at 10 µM for CC(NCC(N)=O)c1c(F)cccc1Cl (configuration not stated) , which is -0.725

Kindly note the recorded cytotoxicity at 10 µM for CCOCc1nc2c(c(NC(CC)c3ccncc3)n1)CCNCC2 (configuration not stated) , which is -0.0944

Kindly note the recorded cytotoxicity at 10 µM for CN1CCCCC1c1ncc2c(n1)CCN(CCCc1ccccc1)C2 (configuration not stated) , which is -30.5

Kindly note the recorded cytotoxicity at 10 µM for COc1ccc(CCCC(=O)N2C[C@H](C3CC3)[C@@H](N(C)C)C2)cc1 , which is 0.624

Kindly note the recorded cytotoxicity at 10 µM for Cc1ccc(CNC2CCc3nc(C(C)C)nn3C2)o1 (configuration not stated) , which is -1.85

Kindly note the recorded cytotoxicity at 10 µM for Cc1cnn(C2CCCN(C(=O)CCc3cnn(C)c3)C2)c1 (configuration not stated) , which is -11.1

Kindly note the recorded cytotoxicity at 10 µM for Cc1cccc(C(=O)N2CC(=O)N(c3ccccc3Cl)CC2C)n1 (configuration not stated) , which is -7.25

Kindly note the recorded cytotoxicity at 10 µM for COC(=O)c1ccn(CC(=O)Nc2nn(CC3CC3)c3ccccc23)n1 , which is 4.95

Kindly note the recorded cytotoxicity at 10 µM for COc1c(C2CCCN2CC(=O)Nc2nc(C)cs2)c(C)nn1C (configuration not stated) , which is -6.76

Kindly note the recorded cytotoxicity at 10 µM for Cc1csc(C(Cc2ccsc2)NC(=O)CN(C)Cc2cccnc2)n1 (configuration not stated) , which is 0.471

Kindly note the recorded cytotoxicity at 10 µM for CN(C(=O)Cc1ccc2c(c1)OCCO2)C1CCCC1 , which is 9.66

Kindly note the recorded cytotoxicity at 10 µM for CC(C)N1CCC(Cn2cc(C(N)=O)cn2)CC1 , which is 6.39

Kindly note the recorded cytotoxicity at 10 µM for CN(C)C(=O)CC1CC2(CCN(CC3CC3)CC2)c2cc(F)ccc21 (configuration not stated) , which is 3.37

Kindly note the recorded cytotoxicity at 10 µM for CC(C)c1ccc(-c2nnn(CCNS(C)(=O)=O)n2)cc1 , which is -3.51

Kindly note the recorded cytotoxicity at 10 µM for CCN(Cc1nc2c(cnn2C)c(=O)[nH]1)c1ccc(F)cc1 , which is -1.67

Kindly note the recorded cytotoxicity at 10 µM for CCC(C)N1CCC(Oc2ccc(C(=O)NCCN(C)C)cc2Cl)CC1 (configuration not stated) , which is -2.09

Kindly note the recorded cytotoxicity at 10 µM for NC(=O)c1c(NC(=O)CCCC(=O)O)sc2c1CCc1ccccc1-2 , which is -1.25

Kindly note the recorded cytotoxicity at 10 µM for N#Cc1cccnc1N1CCC(Nc2ccccc2)C1 (configuration not stated) , which is -3.37

Kindly note the recorded cytotoxicity at 10 µM for COc1ccc2nc(CNC(=O)c3cc(C(C)C)on3)[nH]c2c1 , which is 0.0964

Kindly note the recorded cytotoxicity at 10 µM for CN1C[C@@H](n2cnc(-c3ccccc3)c2-c2c[nH]cn2)C[C@H]1C(=O)O , which is 0.791

Kindly note the recorded cytotoxicity at 10 µM for CC(C)N1C(=O)CN(CCOCCO)CC1(C)C , which is 1.94

Kindly note the recorded cytotoxicity at 10 µM for O=C1CC(c2ccccc2)C2(CCN(CC3CC3)CC2)N1 (configuration not stated) , which is -6.47

Kindly note the recorded cytotoxicity at 10 µM for CC(=O)N1CCC(Cc2cncc(-c3c(C)n[nH]c3C)n2)C1 (configuration not stated) , which is -19.4

Kindly note the recorded cytotoxicity at 10 µM for CN(CCCNC(=O)C1CCCN(C(N)=O)C1)S(C)(=O)=O (configuration not stated) , which is -4.76

Kindly note the recorded cytotoxicity at 10 µM for CCS(=O)(=O)N1CC[C@H]2O[C@H](c3nc(C)no3)CC[C@H]21 , which is 6.73

Kindly note the recorded cytotoxicity at 10 µM for CC(NC(=O)N1CCC(c2ccccc2)CC1)c1nncn1C (configuration not stated) , which is -10.3

Kindly note the recorded cytotoxicity at 10 µM for COC(=O)c1ccccc1C(=O)N(CCN(C)C)Cc1sccc1C , which is -129

Kindly note the recorded cytotoxicity at 10 µM for O=C(c1ccccn1)N1C[C@H]2CC[C@@H](C1)N(C(=O)CCc1ccsc1)C2 , which is -12.7

Kindly note the recorded cytotoxicity at 10 µM for c1cc(-c2cncc(C3CCNCC3)n2)n[nH]1 , which is 3.42

Kindly note the recorded cytotoxicity at 10 µM for CCn1nc(C)c(CNC(=O)NCC(C)(O)c2ccsc2)c1C (configuration not stated) , which is 7.59

Kindly note the recorded cytotoxicity at 10 µM for Cc1ccc(OCCCNC(=O)NC(C)c2nncn2C)cc1 (configuration not stated) , which is -3.83

Kindly note the recorded cytotoxicity at 10 µM for O=C(NCCCc1ccncc1)C1CCCN(Cc2ccco2)C1 (configuration not stated) , which is 20.1

Kindly note the recorded cytotoxicity at 10 µM for Cc1nc(C2CCCN2CC(=O)Nc2c(C)n[nH]c2C)no1 (configuration not stated) , which is 1.65

Kindly note the recorded cytotoxicity at 10 µM for Cc1nc(N2CCOCC2)nc2c1CCN(c1nccs1)CC2 , which is 7.37

Kindly note the recorded cytotoxicity at 10 µM for CCc1nc(C)cc(N2CCN(C(=O)[C@@H]3C[C@H]4C=C[C@@H]3C4)CC2)n1 , which is 5.68

Kindly note the recorded cytotoxicity at 10 µM for CCc1c(-c2ccccc2)nc2c(c(C)c(C)n2CCN(C)C)c1N , which is 17.7

Kindly note the recorded cytotoxicity at 10 µM for CCc1cnc(CNC(=O)N2CCCC(c3ncc[nH]3)C2)s1 (configuration not stated) , which is 8.2
